molecular target: Hexokinase-4 (Homo sapiens, UniProt P35557); experiment: Activation of full length human C-terminal FLAG-tagged glucokinase (12 to 465 residues) expressed in Escherichia coli DH10b using glucose as substrate after 60 mins in presence of ATP by kinase-glo luminescence assay
Sequence (P35557 whole entry, the tested form may be a part): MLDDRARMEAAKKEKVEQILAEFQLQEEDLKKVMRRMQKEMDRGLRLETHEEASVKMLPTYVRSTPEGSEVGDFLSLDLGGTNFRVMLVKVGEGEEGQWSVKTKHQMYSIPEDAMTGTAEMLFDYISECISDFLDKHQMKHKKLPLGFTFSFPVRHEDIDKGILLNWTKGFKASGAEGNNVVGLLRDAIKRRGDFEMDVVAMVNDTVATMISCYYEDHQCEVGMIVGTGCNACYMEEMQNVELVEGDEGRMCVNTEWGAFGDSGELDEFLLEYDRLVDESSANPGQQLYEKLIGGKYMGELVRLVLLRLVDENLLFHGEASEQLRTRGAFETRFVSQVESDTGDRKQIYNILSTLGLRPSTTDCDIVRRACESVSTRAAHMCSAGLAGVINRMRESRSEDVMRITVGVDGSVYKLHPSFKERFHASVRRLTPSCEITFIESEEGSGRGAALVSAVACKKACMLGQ
Assign labels as follows, please: fulfilled for EC50 below 0.6 µM; not fulfilled for EC50 equal to or exceeding 0.6 µM.

Please check: EC50 for O=C(Nc1ccn(CCO)n1)C(CC1CCOCC1)n1ncc2c(S(=O)(=O)C3CC3)cccc21 (racemic) , strictly under 0.6 µM or not?
not fulfilled

Please check: EC50 for Cc1ccc(NC(=O)C(CC2CCOCC2)n2ncc3c(S(=O)(=O)C4CC4)cccc32)nn1 (racemic) , strictly under 0.6 µM or not?
not fulfilled

Please check: EC50 for `O=C(Nc1ncc(F)s1)[C@H](CC1CCOCC1)n1ncc2c(S(=O)(=O)C3CC3)ccnc21` , strictly under 0.6 µM or not?
fulfilled

Please check: EC50 for NC(=O)c1cccnc1NC(=O)C(CC1CCOCC1)n1ncc2c(S(=O)(=O)C3CC3)cccc21 (racemic) , strictly under 0.6 µM or not?
fulfilled

Please check: EC50 for `O=C(Nc1ncc(Cl)s1)[C@H](CC1CCCC1)n1cc(S(=O)(=O)C2CC2)cn1` , strictly under 0.6 µM or not?
not fulfilled

Please check: EC50 for `Cc1cc(S(=O)(=O)C2CC2)cc(=O)n1[C@@H](CC1CCOCC1)C(=O)Nc1ncc(Cl)s1` , strictly under 0.6 µM or not?
not fulfilled

Please check: EC50 for Cc1nnc(NC(=O)C(CC2CCOCC2)n2ncc3c(S(=O)(=O)C4CC4)cccc32)s1 (racemic) , strictly under 0.6 µM or not?
not fulfilled

Please check: EC50 for `O=C(Nc1ncc(F)s1)[C@H](CC1CCOCC1)n1ncc2c(S(=O)(=O)C3CC3)cncc21` , strictly under 0.6 µM or not?
fulfilled

Please check: EC50 for `O=C(Nc1ncc(Cl)s1)[C@H](CC1CCOCC1)n1ncc2cc(S(=O)(=O)C3CC3)ccc21` , strictly under 0.6 µM or not?
fulfilled

Please check: EC50 for O=C(Nc1ncc(F)s1)C(CC1CCOCC1)n1cc(S(=O)(=O)c2cccc(Cl)c2)cn1 (racemic) , strictly under 0.6 µM or not?
not fulfilled

Please check: EC50 for `O=C(Nc1cnccn1)[C@H](CC1CCOCC1)n1ncc2c(S(=O)(=O)C3CC3)cccc21` , strictly under 0.6 µM or not?
not fulfilled

Please check: EC50 for `O=C(Nc1ncc(Cl)s1)[C@H](CC1CCOCC1)n1cc(S(=O)(=O)C2CC2)cn1` , strictly under 0.6 µM or not?
not fulfilled

Please check: EC50 for O=C(Nc1ncc(Cl)s1)C(CC1CCOCC1)n1ncc2ccc(S(=O)(=O)C3CC3)cc21 (racemic) , strictly under 0.6 µM or not?
not fulfilled

Please check: EC50 for `COc1cc(S(=O)(=O)C2CC2)c2cnn([C@@H](CC3CCOCC3)C(=O)Nc3ncc(F)s3)c2c1` , strictly under 0.6 µM or not?
fulfilled

Please check: EC50 for `O=C(Nc1ncc(F)s1)[C@H](CC1CCOCC1)n1ncc2c(S(=O)(=O)C3CC3)cc(O)cc21` , strictly under 0.6 µM or not?
fulfilled

Please check: EC50 for `O=C(Nc1ncc(F)s1)[C@H](CC1CCOCC1)n1cc(S(=O)(=O)C2CC2)cn1` , strictly under 0.6 µM or not?
not fulfilled

Please check: EC50 for `O=C(Nc1ncc(F)s1)[C@H](CC1CCOCC1)n1ncc2c(S(=O)(=O)C3CC3)cccc21` , strictly under 0.6 µM or not?
fulfilled

Please check: EC50 for `O=C(Nc1ncc(F)s1)[C@H](CC1CCCC1)n1cc(S(=O)(=O)C2CC2)cn1` , strictly under 0.6 µM or not?
not fulfilled

Every entry's value here was drawn from ChEMBL document CHEMBL4020781.
